System: Plasmodium falciparum
Experiment: In vitro antimalarial activity for chloroquine-resistant Plasmodium falciparum in schizont maturation assay
Assay type: functional
IC90 less than 20 µM is fulfilled; IC90 greater than or equal to 20 µM is not fulfilled.

O=C1C2CC/C=C\CCC2N1Cc1ccccc1 (stereo not given)	fulfilled
O=C1NC2C=CC=CCC12 (stereo not given)	fulfilled
O=C1C2CC=CCC2N1Cc1ccccc1 (stereo not given)	fulfilled
O=C1NC2CC/C=C\CCC12 (stereo not given)	not fulfilled
O=C1C2CCCC2N1Cc1ccccc1 (stereo not given)	fulfilled
O=C1C2CC=CC=CC2N1Cc1ccccc1 (stereo not given)	fulfilled
O=C1NC2CC=CCC12 (stereo not given)	not fulfilled
O=C1NC2CCCCCCC12 (stereo not given)	not fulfilled
O=C1NC2CCCC12 (stereo not given)	not fulfilled
O=C1C2CCCCCCC2N1Cc1ccccc1 (stereo not given)	fulfilled
